Listing of recorded IC50 by entry.
System: human Edg-2 receptor (Homo sapiens, UniProt Q92633)
Sequence (Q92633 whole entry): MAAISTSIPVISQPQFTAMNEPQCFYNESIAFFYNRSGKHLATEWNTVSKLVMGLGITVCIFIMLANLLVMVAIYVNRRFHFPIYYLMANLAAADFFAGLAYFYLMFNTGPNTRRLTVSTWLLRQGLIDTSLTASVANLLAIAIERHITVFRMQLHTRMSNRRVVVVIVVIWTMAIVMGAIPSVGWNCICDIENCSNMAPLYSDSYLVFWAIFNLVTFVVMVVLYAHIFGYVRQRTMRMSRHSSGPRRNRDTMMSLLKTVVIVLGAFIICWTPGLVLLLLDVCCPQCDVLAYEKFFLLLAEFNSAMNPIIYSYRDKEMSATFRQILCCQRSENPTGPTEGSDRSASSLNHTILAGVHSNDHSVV
Assay Comment: Determination of Edg-2 receptor inhibition by FLIPR measurements (LPA-mediated calcium liberation)
Format: cell-based
Measurement Context: CHO cells overexpressing human Edg-2 receptor, LPA 100 nM, fluo-4 calcium fluorescence; read-out: Inhibitory concentrations IC50 for inhibition of the Edg-2 receptor
Measured Quantity: IC50

{"columns": ["Compound", "Result"],
 "data": [
  ["COc1ncc(C(=O)NC2(C(=O)O)CCCCCC2)cc1OCCc1cccc(Cl)c1", "< 100 nM"],
  ["COc1ccc(C(=O)NC2(C(=O)O)CCCCCC2)cc1OCC1CC=CCC1 (centres unmarked)", "100 to 1000 nM"],
  ["CC[C@H]1CC[C@](NC(=O)c2ccc(CO)c(-c3cccc(C(F)(F)F)c3)c2)(C(=O)O)CC1", "100 to 1000 nM"],
  ["Cc1cccc(CCOc2cc(C(=O)N[C@]3(C(=O)O)CC[C@H](C(F)(F)F)CC3)ccc2C2COC2)c1", "< 100 nM"],
  ["COc1ccc(C(=O)NC2(C(=O)O)CCCOCC2)cc1OCCc1cccc(C)c1 (centres unmarked)", "1000 to 30000 nM"],
  ["COc1ccc(C(=O)NC2(C(=O)O)CCCCCC2)cc1CCCc1cccc(C)c1", "< 100 nM"],
  ["COc1ccc(C(=O)NC2(C(=O)O)CCC=CCC2)cc1OCCc1cccc(C)c1", "< 100 nM"],
  ["CC[C@H]1CC[C@@](NC(=O)c2cnc(OC)c(-c3cccc(Cl)c3Cl)c2)(C(=O)O)CC1", "< 100 nM"]
]}

====

Listing of recorded IC50 by entry.
System: human Edg-2 receptor (Homo sapiens, UniProt Q92633)
Assay Comment: Determination of Edg-2 receptor inhibition by FLIPR measurements (LPA-mediated calcium liberation)
Measurement Context: CHO cells overexpressing human Edg-2 receptor, LPA 100 nM, fluo-4 calcium fluorescence; read-out: Inhibitory concentrations IC50 for inhibition of the Edg-2 receptor
Measured Quantity: IC50

{"columns": ["Structure As Smiles", "System", "Result"],
 "data": [
  ["COc1ncc(C(=O)N[C@]2(C(=O)O)CC[C@@H](C)CC2)cc1OCCc1cc(Cl)ccc1F", "human Edg-2 receptor (Homo sapiens, UniProt Q92633)", "< 100 nM"],
  ["Cc1cccc(CCOc2cc(C(=O)N[C@]3(C(=O)O)CC[C@@H](C)CC3)ccc2OCCO)c1", "human Edg-2 receptor (Homo sapiens, UniProt Q92633)", "< 100 nM"],
  ["C[C@H]1CC[C@](NC(=O)c2ccc(CCCO)c(-c3cccc(C(F)(F)F)c3)c2)(C(=O)O)CC1", "human Edg-2 receptor (Homo sapiens, UniProt Q92633)", "100 to 1000 nM"]
]}

====

System: human Edg-2 receptor (Homo sapiens)
Assay Comment: Determination of Edg-2 receptor inhibition by FLIPR measurements (LPA-mediated calcium liberation)
Type: cell-based
Measurement Context: CHO cells overexpressing human Edg-2 receptor, LPA 100 nM, fluo-4 calcium fluorescence; read-out: Inhibitory concentrations IC50 for inhibition of the Edg-2 receptor

{"columns": ["Compound", "IC50"],
 "data": [
  ["COc1ccc(C(=O)NC2(C(=O)O)CCCCCC2)cc1OCCc1ccsc1 [Example 11]", "100 to 1000 nM"],
  ["COc1ccc(C(=O)N[C@]2(C(=O)O)CC[C@@H](C)CC2)cc1OCCc1cccc(CCO)c1 [Example 110]", "< 100 nM"],
  ["CC[C@H]1CC[C@@](NC(=O)c2ccc(OC)c(OCCc3cccc(Cl)c3)c2)(C(=O)O)CC1 [Example 207]", "< 100 nM"],
  ["COc1ccc(C(=O)NC2(C(=O)O)CCCCCC2)cc1OCC(O)c1cccc(C)c1 (stereo not drawn) [Example 73]", "1000 to 30000 nM"],
  ["COc1ccc(C(=O)N[C@@]2(C(=O)O)C[C@@H]3CC[C@H]2O3)cc1OCCc1cccc(C)c1 (racemic) [Example 126]", "< 100 nM"],
  ["COc1ccc(C(=O)NC2(C(=O)O)CCCC(C)CC2)cc1OCCc1cccc(C)c1 (stereo not drawn) [Example 46]", "< 100 nM"],
  ["CC[C@H]1CC[C@](NC(=O)c2cc(F)c(OCCO)c(-c3cc(F)cc(F)c3)c2)(C(=O)O)CC1 [Example 385]", "< 100 nM"],
  ["CC[C@H]1CC[C@@](NC(=O)c2cnc(OC)c(-c3cccc(C(F)(F)F)c3)c2)(C(=O)O)CC1 [Example 316]", "< 100 nM"],
  ["COc1ccc(C(=O)NC2(C(=O)O)CCCCCCC2)cc1OCCc1cccc(CCO)c1 [Example 108]", "< 100 nM"],
  ["CC[C@H]1CC[C@@](NC(=O)c2ccc(OC)c(-c3cccc(C(F)(F)F)c3)c2)(C(=O)O)CC1 [Example 332]", "< 100 nM"],
  ["CCc1ncc(C(=O)N[C@]2(C(=O)O)CC[C@H](CC)CC2)cc1OCCc1cccc(Cl)c1 [Example 437]", "< 100 nM"],
  ["COc1ccc(C(=O)N[C@]2(C(=O)O)CC[C@H](C)CC2)cc1OCCc1cccc(CCO)c1 [Example 109]", "< 100 nM"],
  ["CC[C@H]1CC[C@](NC(=O)c2ccc(OC)c(OCCc3cccc(CCO)c3)c2)(C(=O)O)CC1 [Example 111]", "< 100 nM"],
  ["CC[C@H]1CC[C@@](NC(=O)c2cnc(OC)c(OCCc3cccc(CCO)c3)c2)(C(=O)O)CC1 [Example 424]", "< 100 nM"],
  ["COc1ncc(-c2cc(C(=O)N[C@]3(C(=O)O)CC[C@@H](C)CC3)cc(F)c2OC)cc1Cl [Example 449]", "100 to 1000 nM"]
]}

====

Listing of recorded pIC50 by entry.
System: human Edg-2 receptor (Homo sapiens)
Assay Comment: Determination of Edg-2 receptor inhibition by FLIPR measurements (LPA-mediated calcium liberation)
Measurement Context: CHO cells overexpressing human Edg-2 receptor, LPA 100 nM, fluo-4 calcium fluorescence; read-out: Inhibitory concentrations IC50 for inhibition of the Edg-2 receptor
pIC50: −log10 of the molar value.

{"columns": ["Molecule", "pIC50"],
 "data": [
  ["COc1ccc(C(=O)NC2(C(=O)O)CCCCCC2)cc1-c1cccc(C(C)C)c1 [Example 105]", "6.00 to 7.00"],
  ["COc1ccc(C(=O)NC2(C(=O)O)CCC(C)(C)CC2)cc1OCCc1cccc(C)c1 [Example 45]", "6.00 to 7.00"],
  ["COc1ncc(C(=O)N[C@]2(C(=O)O)CC[C@H](C)CC2)cc1OCCc1cccc(C)c1 [Example 79]", "> 7.00"],
  ["CC[C@H]1CC[C@@](NC(=O)c2ccc(CO)c(-c3cccc(C(F)(F)F)c3)c2)(C(=O)O)CC1 [Example 431]", "6.00 to 7.00"],
  ["COc1c(F)cc(C(=O)NC2(C(=O)O)CCCCCC2)cc1OCCc1cccc(C)c1 [Example 70]", "> 7.00"],
  ["CC[C@H]1CC[C@](NC(=O)c2cnc(OC)c(OCCc3cccc(C)c3)c2)(C(=O)O)CC1 [Example 396]", "> 7.00"],
  ["CC[C@H]1CC[C@](NC(=O)c2cnc(O)c(-c3cccc(C(F)(F)F)c3)c2)(C(=O)O)CC1 [Example 426]", "6.00 to 7.00"],
  ["COc1ccc(C(=O)N[C@]2(C(=O)O)CC[C@@H](C)CC2)cc1OCCc1cccc(C)c1 [Example 43]", "> 7.00"],
  ["CC[C@H]1CC[C@](NC(=O)c2cnc(OCCO)c(-c3cc(F)cc(F)c3)c2)(C(=O)O)CC1 [Example 415]", "> 7.00"],
  ["COc1ccc(-c2cc(C(=O)N[C@]3(C(=O)O)CC[C@@H](C)CC3)cc(F)c2OC)cc1Cl [Example 446]", "> 7.00"],
  ["COc1ccc(C(=O)NC2(C(=O)O)CCCC2)cc1OCCc1cccc(C)c1 [Example 35]", "4.52 to 6.00"],
  ["CC[C@@H]1C[C@]1(NC(=O)c1ccc(OC)c(-c2cccc(C(F)(F)F)c2)c1)C(=O)O [Example 427]", "6.00 to 7.00"],
  ["COc1ccc(C(=O)N[C@]2(C(=O)O)CC[C@H](C)CC2)cc1-c1cccc(OC(F)(F)F)c1 [Example 329]", "> 7.00"],
  ["COc1ncc(C(=O)N[C@]2(C(=O)O)CC[C@H](C(F)(F)F)CC2)cc1-c1cc(Cl)cc(C(F)(F)F)c1 [Example 380]", "> 7.00"],
  ["Cc1cccc(CCOc2ccc(C(=O)N[C@]3(C(=O)O)CC[C@@H](C)CC3)cc2C(O)C(F)(F)F)c1 (stereo partly shown) [Example 442]", "> 7.00"],
  ["CC[C@H]1CC[C@](NC(=O)c2cc(F)c(OC)c(-c3cnc(OC)c(Cl)c3)c2)(C(=O)O)CC1 [Example 450]", "> 7.00"],
  ["COc1ncc(C(=O)N[C@]2(C(=O)O)CC[C@H](C)CC2)cc1-c1cc(F)c(F)c(F)c1 [Example 313]", "> 7.00"],
  ["COc1ccc(C(=O)NC2(C(=O)O)CCC(CF)CC2)cc1OCCc1cccc(C)c1 (stereo not shown) [Example 59]", "> 7.00"],
  ["COc1ccc(C(=O)NC2(C(=O)O)CCCC3(CC2)OCCO3)cc1OCCc1cccc(C)c1 (stereo not shown) [Example 51]", "> 7.00"],
  ["COc1ccc(-c2cc(C(=O)N[C@]3(C(=O)O)CC[C@@H](C)CC3)ccc2OC2CC(F)(F)C2)cc1Cl [Example 443]", "6.00 to 7.00"],
  ["COc1ccc(C(=O)NC2(C(=O)O)CCC(C(F)(F)F)CC2)cc1OCCc1cccc(C)c1 (stereo not shown) [Example 369]", "6.00 to 7.00"],
  ["COc1ccc(C(=O)NC2(C(=O)O)CCC2)cc1OCCc1cccc(C)c1 [Example 34]", "4.52 to 6.00"],
  ["CC[C@H]1CC[C@@](NC(=O)c2ccc(OCCO)c(-c3cccc(C(F)(F)F)c3)c2)(C(=O)O)CC1 [Example 386]", "> 7.00"],
  ["COc1ncc(C(=O)N[C@]2(C(=O)O)CC[C@H](C(F)(F)F)CC2)cc1-c1cccc(Cl)c1Cl [Example 378]", "> 7.00"],
  ["COc1ccc(C(=O)NC2(C(=O)O)CCCCCC2)cc1-c1cccc(C2COC2)c1 [Example 457]", "6.00 to 7.00"],
  ["COc1ccc(C(=O)NC2(C(=O)O)CCCC(=O)CC2)cc1OCCc1cccc(C)c1 (stereo not shown) [Example 52]", "4.52 to 6.00"],
  ["COc1ccc(C(=O)NC2(C(=O)O)CCCCC2C)cc1OCCc1cccc(C)c1 (stereo not shown) [Example 32]", "4.52 to 6.00"],
  ["COc1ncc(C(=O)N[C@]2(C(=O)O)CC[C@H](C)CC2)cc1-c1cccc(OC(F)(F)F)c1 [Example 307]", "> 7.00"],
  ["COc1ccc(C(=O)NC2(C(=O)O)CCCCCC2)cc1OCCc1cc(C)ccc1F [Example 1]", "6.00 to 7.00"],
  ["O=C(NC1(C(=O)O)CCCCCC1)c1ccc(OCCO)c(OCCc2cccc(Cl)c2)c1 [Example 121]", "6.00 to 7.00"],
  ["CC[C@H]1CC[C@](NC(=O)c2cc(OCCc3cccc(C)c3)c3c(c2)OC(F)(F)O3)(C(=O)O)CC1 [Example 456]", "> 7.00"]
]}
